molecular target: Fibroblast growth factor receptor 1 (Homo sapiens) (UniProt P11362); test: Inhibition of N-terminal GST-tagged human FGFR1 cytoplasmic domain (398 to 822 residues) expressed in baculovirus expression system at […] using FAM-labeled peptide as substrate after 10 mins by mobility shift assay relative to control
Entries annotated with measured inhibition
Numeric only. Scale: %

Clc1ccc(Nc2cc(Nc3cccc(Cl)c3)ncn2)cc1 :: -3.4
COc1ccc(OC)c(Nc2cc(Nc3ccc(S(N)(=O)=O)cc3)ncn2)c1 :: -8.2
Clc1ccc(Nc2cc(Nc3ccc4[nH]ncc4c3)ncn2)cc1 :: -5.3
O=C(Nc1cc(N2CCOCC2)ncn1)c1ccccc1 :: -1.8

For the compound COc1ccc(Nc2cc(NC(=O)/C=C/c3ccccc3)ncn2)c([N+](=O)[O-])c1 , what inhibition is on record?
-4.9

For the compound CCOC(=O)CC(=O)Nc1cc(Nc2ccc(F)cc2)ncn1 , what inhibition is on record?
-1.1

For the compound COc1ccc(/C=C/C(=O)Nc2cc(N3CCOCC3)ncn2)cc1 , what inhibition is on record?
-4.8

---

target: Vascular endothelial growth factor receptor 2 (Homo sapiens) (UniProt P35968); experiment: Inhibition of N-terminal GST-tagged human KDR cytoplasmic domain (790 to 1356 residues) expressed in baculovirus expression system at […] using FAM-labeled peptide as substrate after 10 mins by mobility shift assay relative to control
Sequence (P35968 whole entry, the tested form may be a part): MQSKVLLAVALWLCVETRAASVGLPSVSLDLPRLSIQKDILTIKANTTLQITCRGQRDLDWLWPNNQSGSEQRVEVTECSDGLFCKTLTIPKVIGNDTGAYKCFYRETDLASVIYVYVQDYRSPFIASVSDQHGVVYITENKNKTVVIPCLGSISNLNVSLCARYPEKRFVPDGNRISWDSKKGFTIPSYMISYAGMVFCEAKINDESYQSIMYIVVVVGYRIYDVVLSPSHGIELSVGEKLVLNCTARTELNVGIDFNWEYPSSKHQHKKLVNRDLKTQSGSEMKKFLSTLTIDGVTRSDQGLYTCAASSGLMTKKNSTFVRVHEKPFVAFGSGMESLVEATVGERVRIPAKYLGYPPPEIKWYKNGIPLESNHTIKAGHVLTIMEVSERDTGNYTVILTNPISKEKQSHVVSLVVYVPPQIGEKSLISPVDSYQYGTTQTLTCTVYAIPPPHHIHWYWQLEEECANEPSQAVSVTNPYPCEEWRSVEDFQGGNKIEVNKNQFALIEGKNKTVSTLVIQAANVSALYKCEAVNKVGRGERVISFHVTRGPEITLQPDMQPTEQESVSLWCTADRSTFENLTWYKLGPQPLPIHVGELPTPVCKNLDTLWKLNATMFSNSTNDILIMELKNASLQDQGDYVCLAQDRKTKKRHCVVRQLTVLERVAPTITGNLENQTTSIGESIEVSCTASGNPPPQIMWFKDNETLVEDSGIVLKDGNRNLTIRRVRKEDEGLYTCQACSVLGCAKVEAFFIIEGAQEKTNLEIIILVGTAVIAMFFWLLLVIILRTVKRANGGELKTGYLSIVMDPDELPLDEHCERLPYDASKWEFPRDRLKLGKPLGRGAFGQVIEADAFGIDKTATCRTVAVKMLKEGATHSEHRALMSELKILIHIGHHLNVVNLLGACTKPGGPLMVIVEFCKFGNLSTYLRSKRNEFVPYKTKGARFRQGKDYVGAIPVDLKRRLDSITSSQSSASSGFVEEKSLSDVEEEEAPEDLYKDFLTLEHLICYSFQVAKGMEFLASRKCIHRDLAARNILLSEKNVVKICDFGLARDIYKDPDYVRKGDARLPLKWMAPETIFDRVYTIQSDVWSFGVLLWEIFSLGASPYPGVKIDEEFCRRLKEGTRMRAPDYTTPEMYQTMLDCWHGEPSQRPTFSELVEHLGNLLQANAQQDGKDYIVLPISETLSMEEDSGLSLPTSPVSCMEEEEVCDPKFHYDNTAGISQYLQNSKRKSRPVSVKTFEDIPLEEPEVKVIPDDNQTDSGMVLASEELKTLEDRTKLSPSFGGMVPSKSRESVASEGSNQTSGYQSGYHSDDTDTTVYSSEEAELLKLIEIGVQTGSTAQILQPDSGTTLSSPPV
Entries annotated with measured inhibition
Numeric only. Scale: %

Look over these answered cases.
CN1CCN(c2ccc(Nc3cc(NC(=O)/C=C/c4ccc(F)cc4)ncn3)cc2)CC1 :: 21.8
CCCC(C)OC(=O)CCC(=O)Nc1cc(Nc2cccc(C(=O)OC(C)CCC)c2)ncn1 (stereo not given) :: 4.9

For the molecule COc1cccc(Nc2cc(NC(=O)CCC(=O)O)ncn2)c1 , what inhibition is on record?
12.4

For the molecule CCOC(=O)c1ccc(Nc2cc(Nc3ccc(C(=O)OCC)cc3)ncn2)cc1 , what inhibition is on record?
3.7

For the molecule COc1cccc(Nc2cc(Nc3cccc(Br)c3)ncn2)c1 , what inhibition is on record?
20.5

---

molecular target: UniProtKB P22455; test: Inhibition of N-terminal GST-tagged human FGFR4 cytoplasmic domain (460 to 802 residues) expressed in baculovirus expression system at 1 uM using FAM-labeled peptide as substrate after 10 mins by mobility shift assay relative to control
Sequence (P22455 22-802 limits assumed): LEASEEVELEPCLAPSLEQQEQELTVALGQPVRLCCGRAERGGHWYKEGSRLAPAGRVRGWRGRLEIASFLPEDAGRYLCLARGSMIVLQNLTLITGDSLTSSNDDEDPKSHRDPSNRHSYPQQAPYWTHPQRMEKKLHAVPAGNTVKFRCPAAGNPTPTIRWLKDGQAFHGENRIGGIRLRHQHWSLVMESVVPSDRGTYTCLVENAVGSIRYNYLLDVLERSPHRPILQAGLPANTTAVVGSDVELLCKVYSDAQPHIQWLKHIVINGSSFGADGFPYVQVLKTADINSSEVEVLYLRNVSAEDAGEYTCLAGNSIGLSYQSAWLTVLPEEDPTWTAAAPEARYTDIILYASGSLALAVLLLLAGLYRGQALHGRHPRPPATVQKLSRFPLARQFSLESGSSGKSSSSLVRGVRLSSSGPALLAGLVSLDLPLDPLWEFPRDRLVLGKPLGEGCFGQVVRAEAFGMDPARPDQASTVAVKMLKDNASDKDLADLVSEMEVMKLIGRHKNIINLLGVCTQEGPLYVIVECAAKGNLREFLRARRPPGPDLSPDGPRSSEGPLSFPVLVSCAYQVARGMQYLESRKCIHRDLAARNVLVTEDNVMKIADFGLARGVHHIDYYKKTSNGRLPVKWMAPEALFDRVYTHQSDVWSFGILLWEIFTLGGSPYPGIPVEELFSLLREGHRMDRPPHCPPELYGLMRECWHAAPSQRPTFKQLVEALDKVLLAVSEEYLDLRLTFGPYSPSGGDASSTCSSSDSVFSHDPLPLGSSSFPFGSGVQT
Entries annotated with measured inhibition
Numeric only. Scale: %

O=C(O)CCCC(=O)Nc1cc(N2CCOCC2)ncn1 :: 4

For the molecule O=C(O)CCCC(=O)Nc1cc(Nc2cccc(Cl)c2)ncn1 , what inhibition is on record?
8.8

For the molecule COc1cccc(Nc2cc(NC(=O)CCCC(=O)O)ncn2)c1 , what inhibition is on record?
21.6

---

test system: BEAS-2B; test: Cytotoxicity against human BEAS2B cells after 72 hrs by MTT assay; type: cell-based
Attribute measured: pIC50
Keep in mind that pIC50 stands for -log10 of concentration in molar terms.

Look over these answered cases.
COc1ccc(Nc2cc(NC(=O)c3ccccc3)ncn2)cc1 :: 4.73
Clc1ccc(Nc2cc(Nc3cccc(Cl)n3)ncn2)cc1 :: 4.74
O=C(Nc1cc(Nc2ccc(Cl)cc2)ncn1)c1ccc(F)cc1 :: 4.73
COc1cccc(Nc2cc(Nc3cc(OC)ccc3OC)ncn2)c1 :: 4.67
CCOC(=O)CCCC(=O)Nc1cc(Nc2cccc(Cl)c2)ncn1 :: 4.68

Now look at this one.
For the molecule O=C(O)CCCC(=O)Nc1cc(N2CCOCC2)ncn1 , what pIC50 is on record?
4.75

---

target: UniProtKB P11362; assay: Inhibition of N-terminal GST-tagged human FGFR1 cytoplasmic domain (398 to 822 residues) expressed in baculovirus expression system at […] using FAM-labeled peptide as substrate after 10 mins by mobility shift assay relative to control
Attribute measured: inhibition (%)
Numeric only. Scale: %

Please state recorded inhibition (tested on UniProtKB P11362) of COc1cccc(Nc2cc(NC(=O)CCC(=O)O)ncn2)c1
0.5

Please state recorded inhibition (tested on UniProtKB P11362) of CN1CCN(c2cc(NC(=O)CCCC(=O)O)ncn2)CC1
-2.3

Please state recorded inhibition (tested on UniProtKB P11362) of O=C(/C=C/c1ccc(F)cc1Br)Nc1cc(Nc2ccc(N3CCOCC3)cc2)ncn1
-2.8

Please state recorded inhibition (tested on UniProtKB P11362) of COc1ccc(OC)c(Nc2cc(Nc3cc(OC)ccc3OC)ncn2)c1
-2.7

---

molecular target: Vascular endothelial growth factor receptor 2 (Homo sapiens) (UniProt P35968); test: Inhibition of N-terminal GST-tagged human KDR cytoplasmic domain (790 to 1356 residues) expressed in baculovirus expression system at […] using FAM-labeled peptide as substrate after 10 mins by mobility shift assay relative to control
Attribute measured: inhibition

Clc1cccc(Nc2cc(Nc3cccc(Cl)c3)ncn2)c1 :: 0.6%
O=C(/C=C/c1ccccc1)Nc1cc(Nc2ccc(O)cc2)ncn1 :: 1.3%

Please state recorded inhibition (tested on Vascular endothelial growth factor receptor 2 (Homo sapiens) (UniProt P35968)) of CCNc1cc(Nc2cccc(Cl)c2)ncn1
6.9%

Please state recorded inhibition (tested on Vascular endothelial growth factor receptor 2 (Homo sapiens) (UniProt P35968)) of COc1cccc(Nc2cc(Nc3cc(OC)ccc3OC)ncn2)c1
7.3%

Please state recorded inhibition (tested on Vascular endothelial growth factor receptor 2 (Homo sapiens) (UniProt P35968)) of COc1ccc(Nc2cc(NC(=O)c3ccc(F)cc3)ncn2)cc1
-3.4%

Please state recorded inhibition (tested on Vascular endothelial growth factor receptor 2 (Homo sapiens) (UniProt P35968)) of CN1CCN(c2cc(NC(=O)CCCC(=O)O)ncn2)CC1
13.6%

Please state recorded inhibition (tested on Vascular endothelial growth factor receptor 2 (Homo sapiens) (UniProt P35968)) of CCOC(=O)CCC(=O)Nc1cc(Nc2ccc(S(N)(=O)=O)cc2)ncn1
7.7%

Please state recorded inhibition (tested on Vascular endothelial growth factor receptor 2 (Homo sapiens) (UniProt P35968)) of COc1cccc(Nc2cc(Nc3ccc(S(N)(=O)=O)cc3)ncn2)c1
12.4%

Please state recorded inhibition (tested on Vascular endothelial growth factor receptor 2 (Homo sapiens) (UniProt P35968)) of O=C(Nc1cc(Nc2ccc(N3CCOCC3)cc2)ncn1)c1ccc(F)cc1
1.7%

Please state recorded inhibition (tested on Vascular endothelial growth factor receptor 2 (Homo sapiens) (UniProt P35968)) of O=C(O)CCCC(=O)Nc1cc(Nc2ccccc2Br)ncn1
16.8%
